Tested on: WNK1
Details: concentration: 1 μM, replicates: in singlicate; n = 1;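 further: KINOMEscan kinase panel screen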
# %Inh per record follows
Numeric answer only, unit % assumed.

{"compound-smiles": "N#Cc1c(N2CCOCC2)sc(-c2ccn[nH]2)c1-c1ccc(Cl)cc1", "tgt": "WNK1", "measurement-kind": "%Inh", "quantitative-result": 0}
{"compound-smiles": "c1ccc(-c2n[nH]cc2-c2ccnc3ccccc23)nc1", "tgt": "WNK1", "measurement-kind": "%Inh", "quantitative-result": 7}
{"compound-smiles": "CN1c2ccc(CNc3ccc(F)cc3)cc2-c2c(cnn2C)S1(=O)=O", "tgt": "WNK1", "measurement-kind": "%Inh", "quantitative-result": 0}
{"compound-smiles": "O=C(NCCCN1CCOCC1)c1cccc(Nc2nccc(Nc3ccc(Oc4ccccc4)cc3)n2)c1", "tgt": "WNK1", "measurement-kind": "%Inh", "quantitative-result": 11}

Consider now this further compound.
# input Answer with the recorded %Inh for the compound listed here: "Fc1ccc(-c2nn3c(OCC(F)(F)F)cccc3c2-c2ccncc2)cc1"
# output 14

* * *

Test system: YSK4
Construct: gene MAP3K19
Settings: concentration: 1 μM, replicates: in singlicate; n = 1
Rule: %Inh under 30% gives no (0), otherwise yes (1).

{"compound": "Cc1ccc(C(=O)NCC(N)=O)cc1-n1c(C)cc(OCc2ccc(F)cc2F)c(Br)c1=O", "tgt": "YSK4", "qualitative-label": "no (0)"}

# input Reported %Inh reaches at least 30% for COc1cc(Nc2nccc(N3CCC(NC(=O)c4cccc(NC(C)=O)c4)C3)n2)cc(OC)c1OC (stereo not drawn) [GSK1379754] ?
# output no (0)

# input Reported %Inh reaches at least 30% for Cc1nnc(-c2ccc3ncc(-c4ccc(S(C)=O)cc4)n3c2)o1 (stereo not drawn) ?
# output no (0)

# input Reported %Inh reaches at least 30% for O=c1cc(N2CCOCC2)nc2n(Cc3cccc(C(F)(F)F)c3)ccn12 [GSK2297543] ?
# output no (0)

# input Reported %Inh reaches at least 30% for "CN1c2ccc(CNc3ccc(F)cc3)cc2-c2c(cnn2C)S1(=O)=O" ?
# output no (0)

# input Reported %Inh reaches at least 30% for Cc1nnc(-c2ccc3occ(-c4ccc(C(C)O)cc4)c3c2)o1 (stereo not drawn) ?
# output no (0)

* * *

Tested on: YSK1
Construct: gene STK25
Conditions: concentration: 1 μM, replicates: in singlicate; n = 1
measurement-kind: %Inh

{"molecule": "O=c1cc(N2CCOCC2)nc2n(Cc3cccc(C(F)(F)F)c3)ccn12", "%Inh": "0%"}

# input Answer with the recorded %Inh for the molecule listed here: "O=C(Nc1cccc(-c2nn3ncccc3c2-c2ccnc(Nc3cccc(C(F)(F)F)c3)n2)c1)c1c(F)cccc1F"
# output 0%

# input Answer with the recorded %Inh for the molecule listed here: "COc1cc2ncn(-c3cc(OCc4sccc4Cl)c(C(N)=O)s3)c2cc1OC"
# output 0%

# input Answer with the recorded %Inh for the molecule listed here: "Cc1cccc(Cn2ccn3c(=O)cc(N4CCOCC4)nc23)c1"
# output 17%

# input Answer with the recorded %Inh for the molecule listed here: "Cc1ccc(NC(=O)c2ccnc(N3CCN(C)CC3)c2)cc1-c1ccc(C(=O)NCC2CC2)cc1"
# output 19%

# input Answer with the recorded %Inh for the molecule listed here: "CN1c2ccc(NCc3ccc(F)cc3)cc2-c2c(cnn2C)S1(=O)=O"
# output 0%

# input Answer with the recorded %Inh for the molecule listed here: "COc1ccc(COc2cc(-n3cnc4ccccc43)sc2C(N)=O)cc1"
# output 0%

# input Answer with the recorded %Inh for the molecule listed here: Cc1c(Cn2c(C)nn3c(=O)cc(N4CCOC(C)C4)nc23)cccc1C(F)(F)F (stereo not drawn)
# output 0%

# input Answer with the recorded %Inh for the molecule listed here: "Nc1nc(-c2ccc3c(N)n[nH]c3c2)cc(N2CCCC2)n1"
# output 9%
